test.target: Sodium-dependent dopamine transporter (Homo sapiens, UniProt Q01959)
Sequence (Q01959 whole entry): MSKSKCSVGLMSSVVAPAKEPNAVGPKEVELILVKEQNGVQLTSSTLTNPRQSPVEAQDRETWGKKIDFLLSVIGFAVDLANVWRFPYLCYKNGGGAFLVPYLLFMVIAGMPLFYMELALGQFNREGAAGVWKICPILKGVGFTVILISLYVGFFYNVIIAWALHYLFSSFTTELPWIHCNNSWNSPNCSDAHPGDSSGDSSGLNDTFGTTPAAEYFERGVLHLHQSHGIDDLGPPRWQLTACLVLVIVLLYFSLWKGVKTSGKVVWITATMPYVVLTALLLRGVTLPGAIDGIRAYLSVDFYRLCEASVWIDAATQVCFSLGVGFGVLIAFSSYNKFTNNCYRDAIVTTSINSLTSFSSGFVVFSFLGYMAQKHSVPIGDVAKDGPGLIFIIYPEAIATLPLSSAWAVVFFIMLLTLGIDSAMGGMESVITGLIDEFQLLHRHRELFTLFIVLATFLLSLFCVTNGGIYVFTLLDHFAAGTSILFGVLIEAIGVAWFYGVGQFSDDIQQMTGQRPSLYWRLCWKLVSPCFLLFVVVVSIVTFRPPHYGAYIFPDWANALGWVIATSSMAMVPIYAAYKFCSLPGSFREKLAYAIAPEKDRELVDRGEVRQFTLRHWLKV
pKi: −log10 of the molar value.

compound: CN1Cc2c(N)cccc2C(c2ccc(Cl)c(Cl)c2)C1 (centres undefined)
pKi: 7.96

compound: C#Cc1ccc([C@H]2CN3CCC[C@H]3c3ccccc32)cc1
pKi: 7.13

compound: C#Cc1ccc(C2CN3CCCC3c3ccccc32)cc1 (racemic)
pKi: 8.28

compound: C#Cc1ccc([C@@H]2CN3CCC[C@@H]3c3ccccc32)cc1
pKi: 8.80

----------
measurement.notes: Half life in human at 4 to 8 mg
Format: ADME, organism-based
condition.set: in vivo
readout: half-life

chemical.string: N[C@H]1CC[C@H](c2ccc(Cl)c(Cl)c2)c2ccccc21
result: 47 h

----------
Listing of recorded Ki by entry.
test.target: Sodium-dependent dopamine transporter (Homo sapiens)
measurement.notes: Binding affinity to human DAT expressed in HEK293 cells after 60 mins in presence of […] by liquid scintillation counting
Format: cell-based

molecule: CNC[C@H](c1ccc2ccccc2c1)[C@H](O)c1ccccc1
Ki, µM: 0.061
//
molecule: CNC[C@H](c1ccc2ccccc2c1)[C@H](O)c1ccccc1 (racemic)
Ki, µM: 0.043
//
molecule: CN(C)C[C@H](c1ccc2ccccc2c1)[C@H](O)C1CCCCC1 (racemic)
Ki, µM: 0.053

----------
test.target: Sodium-dependent noradrenaline transporter (Homo sapiens, UniProt P23975)
Sequence (P23975 whole entry): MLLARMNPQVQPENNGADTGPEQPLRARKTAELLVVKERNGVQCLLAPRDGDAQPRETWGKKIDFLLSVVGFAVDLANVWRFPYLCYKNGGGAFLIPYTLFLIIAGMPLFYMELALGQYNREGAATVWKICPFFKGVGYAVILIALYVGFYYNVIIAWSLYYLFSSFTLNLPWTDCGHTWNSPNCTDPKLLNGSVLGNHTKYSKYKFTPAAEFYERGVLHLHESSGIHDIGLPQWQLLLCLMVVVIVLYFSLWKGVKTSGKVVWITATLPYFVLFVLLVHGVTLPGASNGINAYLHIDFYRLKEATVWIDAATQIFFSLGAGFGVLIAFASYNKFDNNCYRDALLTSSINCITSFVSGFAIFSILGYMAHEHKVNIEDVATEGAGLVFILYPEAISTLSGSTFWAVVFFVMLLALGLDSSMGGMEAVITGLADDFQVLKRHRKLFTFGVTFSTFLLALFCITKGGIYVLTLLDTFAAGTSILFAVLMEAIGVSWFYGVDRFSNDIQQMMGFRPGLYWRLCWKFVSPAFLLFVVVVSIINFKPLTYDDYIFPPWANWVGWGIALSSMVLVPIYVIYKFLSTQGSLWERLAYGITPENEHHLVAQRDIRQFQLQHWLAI
measurement.notes: Binding affinity to human NET expressed in HEK293 cells after 60 mins in presence of [3H]imipramine by liquid scintillation counting
Assay type: cell-based
pKi: −log10 of the molar value.
Listing of recorded pKi by entry.

compound: CNC[C@H](c1ccc2ccccc2c1)[C@H](O)c1ccccc1 (racemic)
pKi: 8.92

compound: CN(C)C[C@H](c1ccc2ccccc2c1)[C@H](O)C1CCCCC1 (racemic)
pKi: 8.00

compound: CNC[C@H](c1ccc2ccccc2c1)[C@H](O)c1ccccc1
pKi: 8.82

----------
test.target: Sodium-dependent noradrenaline transporter (Homo sapiens, UniProt P23975)
measurement.notes: Inhibition of human NET expressed in CHO cells assessed as reduction of [3H]-NE re-uptake preincubated for 10 mins followed by [3H]-NE addition measured after 10 mins by liquid scintillation counting
Type: cell-based

compound: CN(C)CC(c1ccc(OC(=O)c2ccccc2)cc1)C1(O)CCCCC1 (stereo unspecified)
test.target: Sodium-dependent noradrenaline transporter (Homo sapiens, UniProt P23975)
unit.text: nM
IC50: 644

----------
test.target: Sodium-dependent dopamine transporter (Homo sapiens)
readout: log10 IC50 (log10 of the value in nM)

molecule: COC[C@@]12CNCC[C@]1(c1ccc(Cl)c(Cl)c1)C2
log10 IC50: 0.90
//
molecule: N[C@H]1CC[C@H](c2ccc(Cl)c(Cl)c2)c2ccccc21
log10 IC50: 0.30
//
molecule: Cc1ccc(C23CNCC2C3)cc1 (configuration not stated)
log10 IC50: 2.96
//
molecule: CCOC[C@H]1[C@@H](c2ccc(Cl)c(Cl)c2)C[C@@H]2CC[C@H]1N2C
log10 IC50: 0.90
//
molecule: COC[C@H]1[C@@H](c2ccc(Cl)c(Cl)c2)C[C@@H]2CC[C@H]1N2C
log10 IC50: 1.00
//
molecule: CN(C)C[C@]1(c2ccc(Cl)c(Cl)c2)CC[C@@](C)(O)CC1
log10 IC50: 1.61
//
molecule: Cc1cc2cc(OC3C[C@H]4CC[C@@H](C3)N4)ccc2oc1=O (some centres not stated)
log10 IC50: 2.18
